Please respond with reported melting point for every item in the list.

Please review the entries below; each comes with its answer.
CN1CCN(c2ccc3cc(-c4cccnc4C(F)(F)F)c(=O)oc3c2)CC1; 180 to 182 °C
Cc1cn2cc(-c3cc4ccc(N5CCC(N(CCO)CCO)CC5)cc4oc3=O)nc2c(C)n1; 209 to 212 °C
Cc1cc(F)c2nc(-c3cc4ccc(N5CCN[C@@H](C)C5)cc4oc3=O)cn2c1; 250 to 255 °C
O=c1oc2cc(N3CCNCC3)ccc2cc1-c1cccc(OC2CCC2)n1; 166 to 168 °C
CCN1CCC(F)(c2ccc3cc(-c4cn5cc(C)nc(C)c5n4)c(=O)oc3c2)CC1; 162 to 164 °C

Batch lookup, melting point per entry.
1. O=c1oc2cc(N3CCCNCC3)ccc2cc1-c1cn2cccc(F)c2n1
2. COc1cccn2cc(-c3cc4ccc(N5CCNCC5)cc4oc3=O)nc12
3. Cc1cc(F)c2nc(-c3cc4ccc(N5CCN6CCCCC6C5)cc4oc3=O)cn2c1 (centres unmarked)

1: 210 to 213 °C; 2: 236 to 240 °C; 3: 268 to 275 °C
